Target: C3b (Homo sapiens)
Construct: the α’NT, MG6^α−8, anchor, and C-terminal complement (CTC) domains of the α-chain that are all shared between C3c and C3b; purchased Complement Technology (Tyler, TX, USA)
Sequence (P01024 23-667 limits assumed): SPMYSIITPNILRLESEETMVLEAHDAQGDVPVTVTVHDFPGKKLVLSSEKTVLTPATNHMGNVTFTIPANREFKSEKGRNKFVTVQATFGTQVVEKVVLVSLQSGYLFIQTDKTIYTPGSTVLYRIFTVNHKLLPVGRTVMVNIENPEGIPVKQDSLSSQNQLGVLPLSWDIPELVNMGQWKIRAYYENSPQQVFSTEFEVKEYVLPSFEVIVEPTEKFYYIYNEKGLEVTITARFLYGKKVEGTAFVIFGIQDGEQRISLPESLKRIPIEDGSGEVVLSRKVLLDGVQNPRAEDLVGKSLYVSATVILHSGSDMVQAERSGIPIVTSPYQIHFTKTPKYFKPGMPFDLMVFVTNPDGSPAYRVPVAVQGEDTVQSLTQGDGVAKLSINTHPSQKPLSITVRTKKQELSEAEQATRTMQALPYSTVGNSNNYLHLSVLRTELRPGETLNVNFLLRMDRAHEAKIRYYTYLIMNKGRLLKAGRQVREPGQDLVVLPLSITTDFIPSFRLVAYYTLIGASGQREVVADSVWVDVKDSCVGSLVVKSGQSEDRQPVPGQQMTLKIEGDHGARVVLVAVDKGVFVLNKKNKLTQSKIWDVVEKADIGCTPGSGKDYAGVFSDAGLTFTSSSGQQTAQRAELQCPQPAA
Sequence (P01024 749-1663 limits assumed): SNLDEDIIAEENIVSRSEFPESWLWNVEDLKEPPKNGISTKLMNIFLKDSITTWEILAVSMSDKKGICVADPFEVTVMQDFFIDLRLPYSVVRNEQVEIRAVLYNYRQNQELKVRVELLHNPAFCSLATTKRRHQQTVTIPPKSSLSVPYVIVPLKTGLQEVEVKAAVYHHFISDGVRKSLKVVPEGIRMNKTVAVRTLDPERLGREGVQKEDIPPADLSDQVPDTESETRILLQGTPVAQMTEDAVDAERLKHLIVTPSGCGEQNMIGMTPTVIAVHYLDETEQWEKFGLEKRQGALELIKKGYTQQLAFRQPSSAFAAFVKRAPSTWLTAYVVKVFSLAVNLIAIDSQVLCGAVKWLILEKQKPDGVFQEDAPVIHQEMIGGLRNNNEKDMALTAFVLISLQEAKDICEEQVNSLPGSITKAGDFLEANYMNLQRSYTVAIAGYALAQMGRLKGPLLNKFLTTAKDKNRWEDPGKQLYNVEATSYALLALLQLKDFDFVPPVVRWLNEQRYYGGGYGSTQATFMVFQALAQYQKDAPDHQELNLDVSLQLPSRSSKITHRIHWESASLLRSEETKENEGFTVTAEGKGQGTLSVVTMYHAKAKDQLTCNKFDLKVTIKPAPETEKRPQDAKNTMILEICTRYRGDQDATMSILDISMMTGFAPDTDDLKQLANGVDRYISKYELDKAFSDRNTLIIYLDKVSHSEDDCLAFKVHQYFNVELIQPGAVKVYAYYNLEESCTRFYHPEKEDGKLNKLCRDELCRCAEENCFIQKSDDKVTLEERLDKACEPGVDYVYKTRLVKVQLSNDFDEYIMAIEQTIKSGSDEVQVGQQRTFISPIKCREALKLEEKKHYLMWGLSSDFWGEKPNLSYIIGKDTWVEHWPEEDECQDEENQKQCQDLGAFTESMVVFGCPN
Test: SPR kinetic binding studies on immobilized C3b
Conditions: pH 7.4, read-out: ka, Dataset 1
Bridge positions count the residues as written; N and C are the ends. Square brackets hold non-standard residues; d marks the D form. Peptide text beside a SMILES is read from it. Trp(1-Me) = Cn1cc(C[C@H](N)C(=O)O)c2ccccc21; NMeI = CC[C@H](C)[C@H](NC)C(=O)O; Sar = CNCC(=O)O
Listed below: kon values for each entry.
Number first, unit second: that is the form wanted.

CC[C@H](C)[C@H](NC(=O)[C@H](N)Cc1ccc(O)cc1)C(=O)N[C@H]1CSSC[C@@H](C(=O)N[C@@H](C)C(N)=O)NC(=O)[C@H](CCCNC(=N)N)NC(=O)[C@H](Cc2c[nH]cn2)NC(=O)[C@H](C)NC(=O)CN(C)C(=O)[C@H](Cc2c[nH]c3ccccc23)NC(=O)[C@H](CC(=O)O)NC(=O)[C@H](CCC(N)=O)NC(=O)[C@H](Cc2cn(C)c3ccccc23)NC(=O)[C@H](C(C)C)NC1=O [Cp40 mI14A] (H-[dY]ICV[Trp(1-Me)]QDW[Sar]AHRCA-NH2; disulfide 3-13) | 4.23e+06 M⁻¹ s⁻¹
CC[C@H](C)[C@H](NC(=O)[C@H](N)Cc1ccc(O)cc1)C(=O)N[C@H]1CSSC[C@@H](C(=O)N(C)[C@H](C(N)=O)[C@@H](C)CC)NC(=O)[C@H](CCCNC(=N)N)NC(=O)[C@H](Cc2c[nH]cn2)NC(=O)[C@H](C)NC(=O)CN(C)C(=O)[C@H](Cc2c[nH]c3ccccc23)NC(=O)[C@H](CC(=O)O)NC(=O)[C@H](CCC(N)=O)NC(=O)[C@H](Cc2c[nH]c3ccccc23)NC(=O)[C@H](C(C)C)NC1=O | 130000 M⁻¹ s⁻¹
CC[C@H](C)[C@H](NC(=O)[C@H](N)Cc1ccc(O)cc1)C(=O)N[C@H]1CSSC[C@@H](C(N)=O)NC(=O)[C@H](CCCNC(=N)N)NC(=O)[C@H](Cc2c[nH]cn2)NC(=O)[C@H](C)NC(=O)CN(C)C(=O)[C@H](Cc2c[nH]c3ccccc23)NC(=O)[C@H](CC(=O)O)NC(=O)[C@H](CCC(N)=O)NC(=O)[C@H](Cc2cn(C)c3ccccc23)NC(=O)[C@H](C(C)C)NC1=O [Cp40 ΔmI14] (H-[dY]ICV[Trp(1-Me)]QDW[Sar]AHRC-NH2; disulfide 3-13) | 1.41e+06 M⁻¹ s⁻¹

Query compound follows.
Checklist item: kon tested on C3b (Homo sapiens), entry CC[C@H](C)[C@H](NC(=O)[C@H](N)Cc1ccc(O)cc1)C(=O)N[C@H]1CSSC[C@@H](C(=O)N(C)[C@H](C(N)=O)[C@@H](C)CC)NC(=O)[C@H](CO)NC(=O)[C@H](Cc2c[nH]cn2)NC(=O)[C@H](C)NC(=O)CN(C)C(=O)[C@H](Cc2c[nH]c3ccccc23)NC(=O)[C@H](CC(=O)O)NC(=O)[C@H](CCC(N)=O)NC(=O)[C@H](Cc2cn(C)c3ccccc23)NC(=O)[C@H](C(C)C)NC1=O [Cp40 R12S] (H-[dY]ICV[Trp(1-Me)]QDW[Sar]AHSC[NMeI]-NH2; disulfide 3-13) , value?
140000 M⁻¹ s⁻¹

---

Listed below: Kd values for each entry.
Target: C3b (Homo sapiens)
Construct: the α’NT, MG6^α−8, anchor, and C-terminal complement (CTC) domains of the α-chain that are all shared between C3c and C3b; purchased Complement Technology (Tyler, TX, USA)
Assay: SPR kinetic binding studies on immobilized C3b
Details: source data of Table 1, single SPR dataset 3; read-out: KD, Dataset 3
Bridge positions count the residues as written; N and C are the ends. Square brackets hold non-standard residues; d marks the D form. Peptide text beside a SMILES is read from it. Trp(1-Me) = Cn1cc(C[C@H](N)C(=O)O)c2ccccc21; NMeI = CC[C@H](C)[C@H](NC)C(=O)O; Sar = CNCC(=O)O
Form entry: value (nM) — number only.

CC[C@H](C)[C@H](NC(=O)[C@H](N)Cc1ccc(O)cc1)C(=O)N[C@H]1CSSC[C@@H](C(=O)N(C)[C@H](C(N)=O)[C@@H](C)CC)NC(=O)[C@H](CO)NC(=O)[C@H](Cc2c[nH]cn2)NC(=O)[C@H](C)NC(=O)CN(C)C(=O)[C@H](Cc2c[nH]c3ccccc23)NC(=O)[C@H](CC(=O)O)NC(=O)[C@H](CCC(N)=O)NC(=O)[C@H](Cc2cn(C)c3ccccc23)NC(=O)[C@H](C(C)C)NC1=O [Cp40 R12S] (H-[dY]ICV[Trp(1-Me)]QDW[Sar]AHSC[NMeI]-NH2; disulfide 3-13) | 9.22

Query compound follows.
Fill blank: measured Kd of the compound CC[C@H](C)[C@H](NC(=O)[C@H](C)N)C(=O)N[C@H]1CSSC[C@@H](C(=O)N(C)[C@H](C(N)=O)[C@@H](C)CC)NC(=O)[C@H](CCCNC(=N)N)NC(=O)[C@H](Cc2c[nH]cn2)NC(=O)[C@H](C)NC(=O)CN(C)C(=O)[C@H](Cc2c[nH]c3ccccc23)NC(=O)[C@H](CC(=O)O)NC(=O)[C@H](CCC(N)=O)NC(=O)[C@H](Cc2cn(C)c3ccccc23)NC(=O)[C@H](C(C)C)NC1=O [Cp40 y1A] (H-AICV[Trp(1-Me)]QDW[Sar]AHRC[NMeI]-NH2; disulfide 3-13) is ____.
3.1

---

Target: C3b (Homo sapiens)
Construct: the α’NT, MG6^α−8, anchor, and C-terminal complement (CTC) domains of the α-chain that are all shared between C3c and C3b; purchased Complement Technology (Tyler, TX, USA)
Test: SPR kinetic binding studies on immobilized C3b
Conditions: source data of Table 1, single SPR dataset 1; read-out: KD, Dataset 1
Bridge positions count the residues as written; N and C are the ends. Square brackets hold non-standard residues; d marks the D form. Peptide text beside a SMILES is read from it. Trp(1-Me) = Cn1cc(C[C@H](N)C(=O)O)c2ccccc21; NMeI = CC[C@H](C)[C@H](NC)C(=O)O; Sar = CNCC(=O)O
measurement kind: Kd
Number first, unit second: that is the form wanted.

Checklist item: Kd tested on C3b (Homo sapiens), entry CC[C@H](C)[C@H](NC(C)=O)C(=O)N[C@H]1CSSC[C@@H](C(=O)N(C)[C@H](C(N)=O)[C@@H](C)CC)NC(=O)[C@H](CCCNC(=N)N)NC(=O)[C@H](Cc2c[nH]cn2)NC(=O)[C@H](C)NC(=O)CN(C)C(=O)[C@H](Cc2c[nH]c3ccccc23)NC(=O)[C@H](CC(=O)O)NC(=O)[C@H](CCC(N)=O)NC(=O)[C@H](Cc2cn(C)c3ccccc23)NC(=O)[C@H](C(C)C)NC1=O [Cp20, reference compound] , value?
3.78 nM

Now the molecule CC[C@H](C)[C@H](NC(=O)[C@H](N)Cc1ccc(O)cc1)C(=O)N[C@H]1CSSC[C@@H](C(=O)N(C)[C@H](C(N)=O)[C@@H](C)CC)NC(=O)[C@H](CO)NC(=O)[C@H](Cc2c[nH]cn2)NC(=O)[C@H](C)NC(=O)CN(C)C(=O)[C@H](Cc2c[nH]c3ccccc23)NC(=O)[C@H](CC(=O)O)NC(=O)[C@H](CCC(N)=O)NC(=O)[C@H](Cc2cn(C)c3ccccc23)NC(=O)[C@H](C(C)C)NC1=O [Cp40 R12S] (H-[dY]ICV[Trp(1-Me)]QDW[Sar]AHSC[NMeI]-NH2; disulfide 3-13)
10.2 nM
